B1: CDKN1A (parent)
chain: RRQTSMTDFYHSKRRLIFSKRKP

Variants of: B1
Assay: protein stability index of a GFP-peptide fusion (GPS, HEK-293T) (PSI 1-6); higher = more stable;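 note: lentivirally expressed fusions sorted by FACS into six bins by GFP to DsRed ratio, PSI derived from sequencing read proportions per bin multiplied by bin number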
Settings: c terminus: native
protein stability index overview

[
  {
    "var": "K20R",
    "observed result": 2.21
  },
  {
    "var": "P23K",
    "observed result": 2.95
  },
  {
    "var": "R15Y",
    "observed result": 2.23
  },
  {
    "var": "K13S",
    "observed result": 3.39
  },
  {
    "var": "H11K",
    "observed result": 3.46
  }
]

Next up:
Problem: Report protein stability index for "M6Y"
Result: 1.92
